- System: Cholesterol Biosynthesis Genes in the Mouse Liver
- Assay comment: Microarray expression of cholesterol biosynthesis genes in mouse liver
- Assay type: in vivo
- Cond: 10 mg/kg oral, 4 h
isopentenyl-diphosphate delta isomerase (Idi1) RNA expression vs 0.5 fold-change: less than gives YES; not less than gives NO.

For orientation, consider the following solved cases.
Compound	Group
Cc1cccc(C)c1Oc1ccc2c(O)c(C(=O)NCC(=O)O)nc(C#N)c2c1 [Compound I]	NO
COc1ccc(Cn2cc(Br)c3c(O)c(C(=O)NCC(=O)O)nc(C#N)c32)cc1 [Compound K]	NO
N#Cc1nc(C(=O)NCC(=O)O)c(O)c2ccn(Cc3ccc4ccccc4c3)c12 [Compound J]	YES

Now for another entry.
Is isopentenyl-diphosphate delta isomerase (Idi1) RNA expression strictly under 0.5 fold-change for the entry N#Cc1nc(C(=O)NCC(=O)O)c(O)c2ccn(Cc3ccccc3F)c12 [Compound G] ?
NO

----------
- Tested on: Cholesterol Biosynthesis Genes in the Mouse Liver
- Assay comment: Microarray expression of cholesterol biosynthesis genes in mouse liver
- Assay type: in vivo
- Cond: 10 mg/kg oral, 8 h
The label depends only on mevalonate kinase (Mvk) RNA expression: fulfilled if it is at least 0.8 fold-change, not fulfilled if it is smaller.

For orientation, consider the following solved cases.
Smiles structure	Group
COc1ccc(Cn2cc(Br)c3c(O)c(C(=O)NCC(=O)O)nc(C#N)c32)cc1	not fulfilled
Cc1cccc(C)c1Oc1ccc2c(O)c(C(=O)NCC(=O)O)nc(C#N)c2c1	not fulfilled
COc1ccc(Cn2c(Cl)c(Cl)c3c(O)c(C(=O)NCC(=O)O)nc(C#N)c32)cc1	fulfilled

Now for a further compound.
In plain terms: is recorded mevalonate kinase (Mvk) RNA expression at least 0.8 fold-change for `N#Cc1nc(C(=O)NCC(=O)O)c(O)c2ccn(Cc3ccccc3F)c12` ?
fulfilled

----------
- Tested on: Cholesterol Biosynthesis Genes in the Mouse Liver
- Assay comment: Microarray expression of cholesterol biosynthesis genes in mouse liver
- Format: in vivo
- Cond: 10 mg/kg oral, 8 h
Readout: cytochrome P450, family 51 (Cyp51) RNA expression (fold-change)
The figure you give is taken to be in fold-change; do not add the unit.

Take a look at these entries with their results.
Compound	Result
N#Cc1nc(C(=O)NCC(=O)O)c(O)c2ccn(Cc3ccc4ccccc4c3)c12 [Compound J]	0.80
Cc1cccc(C)c1Oc1ccc2c(O)c(C(=O)NCC(=O)O)nc(C#N)c2c1 [Compound I]	0.12
COc1ccc(Cn2cc(Br)c3c(O)c(C(=O)NCC(=O)O)nc(C#N)c32)cc1 [Compound K]	0.32
N#Cc1nc(C(=O)NCC(=O)O)c(O)c2ccn(Cc3ccccc3F)c12 [Compound G]	0.62

Next compound, please.
Looking up COc1ccc(Cn2c(Cl)c(Cl)c3c(O)c(C(=O)NCC(=O)O)nc(C#N)c32)cc1 [Compound F] , I found its cytochrome P450, family 51 (Cyp51) RNA expression recorded as 1.05

----------
- Tested on: Cholesterol Biosynthesis Genes in the Mouse Liver
- Assay comment: Microarray expression of cholesterol biosynthesis genes in mouse liver
- Type: in vivo
- Cond: 10 mg/kg oral, 4 h
Item-by-item account of 7-dehydrocholesterol reductase (Dhcr7) RNA expression
# value in fold-change; strip the unit string

Record excerpt, results attached:
Compound	Value unit	Result
COc1ccc(Cn2c(Cl)c(Cl)c3c(O)c(C(=O)NCC(=O)O)nc(C#N)c32)cc1 [Compound F]	fold-change	0.63
N#Cc1nc(C(=O)NCC(=O)O)c(O)c2ccn(Cc3ccccc3F)c12 [Compound G]	fold-change	0.91
Cc1cccc(C)c1Oc1ccc2c(O)c(C(=O)NCC(=O)O)nc(C#N)c2c1 [Compound I]	fold-change	1.41
COc1ccc(Cn2cc(Br)c3c(O)c(C(=O)NCC(=O)O)nc(C#N)c32)cc1 [Compound K]	fold-change	1.13

Now take the following compound into account.
Form field, 7-dehydrocholesterol reductase (Dhcr7) RNA expression with Cholesterol Biosynthesis Genes in the Mouse Liver, item N#Cc1nc(C(=O)NCC(=O)O)c(O)c2ccn(Cc3ccc4ccccc4c3)c12 [Compound J] : 0.52

Numbers sourced from patent US20150018384A1.
